Test system: Clone20 osteoblast Shn3 3'UTR firefly luciferase, 24 h
Assay: Shn3 3'UTR reporter inhibitors, dose response, cell-based, Clone20 osteoblasts, luminescence, dry powder, set 2 (AID 743417)
Results filed as inconclusive are left out.
parameter.measured: AC50

# count of solved cases: 8
{"columns": ["compound", "result"],
 "data": [
  ["Cc1ccc(Nc2c(-c3ccccn3)nc3cc(C)ccn23)cc1", "1.36 µM"],
  ["CCC(=O)OCCNc1cc(Sc2nc3ccccc3[nH]2)c2nonc2c1[N+](=O)[O-]", "1.09 µM"],
  ["C=C1C(=O)C23C(O)C1CCC2C12COC3(O)C(O)C1C(C)(C)CCC2O (stereo not given)", "3.3 µM"],
  ["Cc1cccc(C)c1-n1nnnc1C(c1cc2ccccc2o1)N1CCC(n2c(=O)[nH]c3ccccc32)CC1 (stereo not given)", "3.05 µM"],
  ["Cc1cc([N+](=O)[O-])ccc1-c1ccc(C2Nc3ccccc3C(=O)N2O)o1 (stereo not given)", "3.32 µM"],
  ["CC(C)c1nnc(NC(=O)CCS(=O)(=O)c2nc(-c3cccs3)cc(C(F)(F)F)n2)s1", "3.02 µM"],
  ["O=C(NNc1ccnc2cc(Cl)ccc12)C1CCCCC1", "< 0.26 µM"],
  ["O=C(c1cc2sccc2n1Cc1ccc(F)cc1)N1CCN(c2nc3ccccc3s2)CC1", "1.36 µM"]
]}

## Task Can you share its AC50? I mean this compound: CCCCCCCCCCOC(=O)Cn1c(COc2ccc(OC)cc2)[n+](C)c2ccccc21
## Result 2.01 µM

## Task Could you tell me which AC50 is on file for CCOc1cccc(CNCCc2c(C)[nH]c3ccc(OC(F)(F)F)cc23)c1O ?
## Result 0.611 µM

* * *

System: Clone20 osteoblast Shn3 3'UTR firefly luciferase, 24 h
Experiment: Shn3 3'UTR reporter inhibitors, dose response, cell-based, Clone20 osteoblasts, luminescence, dry powder, set 2 (AID 743417)
Inconclusive results are not listed.
parameter.measured: AC50

Past entries and their recorded results:
{"columns": ["molecule", "assay.system", "parameter.measured", "result"],
 "data": [
  ["Cc1cccc(C)c1NC(=O)CN(C)C(=O)c1cccc(S(=O)(=O)N2CCN(c3ccc(F)cc3)CC2)c1", "Clone20 osteoblast Shn3 3'UTR firefly luciferase, 24 h", "AC50", "2200 nM"],
  ["C=C1C(=O)[C@@]23[C@H](O)C[C@@H]4C(C)(C)CC[C@H](O)[C@@]4(C)[C@@H]2CC[C@@H]1[C@H]3O", "Clone20 osteoblast Shn3 3'UTR firefly luciferase, 24 h", "AC50", "1290 nM"],
  ["CC(C)C[C@H]1CN=C(N(C)C)N1CC1CCCCCC1", "Clone20 osteoblast Shn3 3'UTR firefly luciferase, 24 h", "AC50", "5030 nM"],
  ["CCOC(=O)N1CCN(CC(c2ccccc2)c2ccccc2)CC1", "Clone20 osteoblast Shn3 3'UTR firefly luciferase, 24 h", "AC50", "14100 nM"],
  ["Cc1c(C(C)C)c(=O)n(-c2ccc(S(=O)(=O)NC3CCCCC3)cc2)n1C", "Clone20 osteoblast Shn3 3'UTR firefly luciferase, 24 h", "AC50", "1060 nM"],
  ["CC1=NNC(=O)/C1=C\\c1cn(-c2ccccc2)nc1-c1ccccc1", "Clone20 osteoblast Shn3 3'UTR firefly luciferase, 24 h", "AC50", "8420 nM"],
  ["CCCn1c(C)cc(C(=O)CN2C(=O)c3ccccc3S2(=O)=O)c1C", "Clone20 osteoblast Shn3 3'UTR firefly luciferase, 24 h", "AC50", "2980 nM"],
  ["CCOC(=O)c1ccc(NC(=O)Cn2ncc(Cl)c(Cl)c2=O)cc1", "Clone20 osteoblast Shn3 3'UTR firefly luciferase, 24 h", "AC50", "2320 nM"],
  ["CC1CC(C)(O)CC(C(O)CC2CC(=O)NC(=O)C2)C1=O (stereo not given)", "Clone20 osteoblast Shn3 3'UTR firefly luciferase, 24 h", "AC50", "339 nM"]
]}

Next, consider the following molecule.
## Task Record request: AC50 value, item CC1(C)CC2CC(C)(CN2c2ncnc3ccc(Br)cc23)C1 (stereo not given)
## Result 2110 nM
